Recorded values, source paper PMC2997942.

# System tested: OCTN2 (Homo sapiens)
# Sequence (O76082 1-557): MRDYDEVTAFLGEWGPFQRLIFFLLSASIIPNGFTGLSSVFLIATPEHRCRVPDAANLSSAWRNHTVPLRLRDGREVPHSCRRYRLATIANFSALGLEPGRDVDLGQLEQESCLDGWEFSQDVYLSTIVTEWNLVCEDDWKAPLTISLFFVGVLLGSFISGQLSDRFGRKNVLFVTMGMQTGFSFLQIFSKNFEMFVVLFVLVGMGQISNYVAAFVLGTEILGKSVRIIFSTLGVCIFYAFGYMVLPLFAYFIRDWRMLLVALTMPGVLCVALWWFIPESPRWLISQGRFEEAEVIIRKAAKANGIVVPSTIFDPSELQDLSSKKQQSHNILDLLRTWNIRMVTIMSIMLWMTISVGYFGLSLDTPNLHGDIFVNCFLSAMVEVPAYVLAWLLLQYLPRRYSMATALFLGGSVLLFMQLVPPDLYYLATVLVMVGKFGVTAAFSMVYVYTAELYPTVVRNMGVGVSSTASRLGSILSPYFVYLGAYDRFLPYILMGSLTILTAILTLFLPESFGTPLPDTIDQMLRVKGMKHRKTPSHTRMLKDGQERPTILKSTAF
# Assay procedure: Inhibition of L-carnitine uptake in stably transfected hOCTN2-MDCK cells
# Assay type: cell-based
# Stated conditions: Observed Ki (±SEM), test set, 10 min, competitive inhibition model
pKi: −log10 of the molar value.
Consider the following molecules and their measured pKi readings.

Molecule: CNC(=C[N+](=O)[O-])NCCSCc1csc(CN(C)C)n1 [Nizatidine]
pKi: 3.74
--
Molecule: CC[C@H]1OC(=O)[C@H](C)[C@@H](O[C@H]2C[C@@](C)(OC)[C@@H](O)[C@H](C)O2)[C@H](C)[C@@H](O[C@@H]2O[C@H](C)C[C@H](N(C)C)[C@H]2O)[C@](C)(O)C[C@@H](C)/C(=N\OCOCCOC)[C@H](C)[C@@H](O)[C@]1(C)O [Roxithromycin]
pKi: 3.48
--
Molecule: CCc1c2c(nc3ccc(OC(=O)N4CCC(N5CCCCC5)CC4)cc13)-c1cc3c(c(=O)n1C2)COC(=O)[C@]3(O)CC [Irinotecan]
pKi: 3.66

###

# System tested: OCTN2 (Homo sapiens)
# Assay procedure: Inhibition of L-carnitine uptake in stably transfected hOCTN2-MDCK cells
# Format: cell-based
# Stated conditions: Observed Ki (±SEM), test set, 10 min, competitive inhibition model
pKi: −log10 of the molar value.
Consider the following compounds and their measured pKi readings.
Observable: pKi

Compound: CCC1=C[C@@H]2CN(C1)Cc1c([nH]c3ccccc13)[C@@](C(=O)OC)(c1cc3c(cc1OC)N(C)[C@H]1[C@@](O)(C(=O)OC)[C@H](OC(C)=O)[C@]4(CC)C=CCN5CC[C@]31[C@@H]54)C2
Measured value: 4.57
--
Compound: COc1cccc2c1C(=O)c1c(O)c3c(c(O)c1C2=O)C[C@@](O)(C(C)=O)C[C@@H]3O[C@H]1C[C@H](N)[C@H](O)[C@H](C)O1
Measured value: 3.30
--
Compound: O=C1[C@H](CC[C@H](O)c2ccc(F)cc2)[C@@H](c2ccc(O)cc2)N1c1ccc(F)cc1
Measured value: 4.53
--
Compound: OC1(c2ccc(Cl)c(C(F)(F)F)c2)CCN(CCCC(c2ccc(F)cc2)c2ccc(F)cc2)CC1
Measured value: 4.58
--
Compound: COc1cc(N)c(Cl)cc1C(=O)NC1CCN(CCCOc2ccc(F)cc2)CC1OC (stereo not drawn) [Cisapride]
Measured value: 4.18
--
Compound: COC(=O)[C@H]1[C@H]2C[C@@H]3c4[nH]c5cc(OC)ccc5c4CCN3C[C@H]2C[C@@H](OC(=O)c2cc(OC)c(OC)c(OC)c2)[C@@H]1OC
Measured value: 4.49
